Tested on: TLR2 induced IL-6 in peripheral blood mononuclear cells (PBMCs)
experimentNotes: PBMC TLR2 Induced IL-6 Assay
Assay type: cell-based, human
testContext: Homo sapiens, PBMC, human PBMCs, lipoteichoic acid stimulated, IL-6 by ELISA; read-out: Cell EC50
Procedure: PBMC TLR2 Induced IL-6 Assay Peripheral blood mononuclear cells (PBMCs) were isolated from human blood containing the anti-coagulant EDTA (2.5 mM) by centrifugation over a FICOLL® gradient. PBMCs (250000 cells/well) were cultured in assay media (RPMI with 10% heat inactivated FCS) with compounds for 30 minutes at 37° C. in a 5% CO2 incubator. Following pretreatment with compounds, cells were stimulated for 5 hours with 10 µg/ml lipoteichoic acid (Invivogen, San Diego, Calif.), a TLR2 agonist. […]
pEC50: −log10 of the molar value.
Tick true (1) if pEC50 is 7 or greater. Tick false (0) if pEC50 is less than 7.

Sample answers from the record:
INSERT INTO measurements (compound, discretelabel) VALUES
  ('CC(=O)N1CCC(Nc2cc(-n3ccc4cc(C#N)cnc43)ncc2C(=O)NC[C@@H](F)C(C)(C)O)CC1', 'false (0)'),
  ('CC(C)(O)[C@H](F)CNC(=O)c1cnc(-n2ncc3cc(C#N)cnc32)cc1NC1CCC(F)(F)C1 (single isomer, unassigned)', 'false (0)'),
  ('CC(C)Nc1cc(-n2ccc3cc(C#N)cnc32)ncc1C(=O)NCC(=O)N1CCN(C)CC1', 'true (1)');

Query: Kindly determine if pEC50 recorded for `CC(C)(O)[C@H](F)CNC(=O)c1cnc(-n2ccc3cc(C#N)cnc32)cc1Nc1cccc(C#N)c1F` is above or exactly 7.
Response: false (0)

---

# pIC50 listing for each entry below
tgt: IRAK4 (Homo sapiens (Human))
experimentNotes: IRAK4 Inhibition Assay
Format: biochemical
testContext: IRAK4 Inhibition Assay; ATP 500 μM; read-out: IRAK4 IC50
Worth noting: pIC50 values are minus log10 of concentrations stated in mol/L.

Field: example entries. Status: answers known.
INSERT INTO assay_data (compound, measured) VALUES
  ('CC(C)Nc1cc(-n2ncc3cc(C#N)cnc32)ncc1C(=O)NC1CCN(S(=O)(=O)NC(C)C)CC1', 7.74),
  ('CC(C)Nc1cc(-n2ncc3cc(C#N)cnc32)ncc1C(=O)Nc1ccc(O)cn1', 7.81),
  ('CC(C)Nc1cc(-n2cnc3cnc(N)nc32)ncc1C(=O)NC[C@@H](F)C(C)(C)O', 8.43),
  ('CC(C)Nc1cc(-n2ncc3cc(C#N)cnc32)ncc1C(=O)NC1CCN(S(=O)(=O)C(C)C)CC1', 8.29),
  ('CC(C)(O)[C@H](F)CNC(=O)c1cnc(-n2ncc3cc(C#N)cnc32)cc1NC1CCC1', 8.35);

Query: Give the measured pIC50 of `CC(C)(O)[C@H](F)CNC(=O)c1cnc(-n2ccc3cc(C#N)cnc32)cc1N[C@@H]1CCC[C@H]1O` .
Response: 8.66

Query: Give the measured pIC50 of `CC(C)Nc1cc(-n2ncc3cc(C#N)cnc32)ncc1C(=O)NCCCc1ncn[nH]1` .
Response: 7.83

---

tgt: UniProtKB Q9NWZ3
experimentNotes: IRAK4 Inhibition Assay
Format: biochemical
testContext: ATP 500 μM; IRAK4 0.6 nM; read-out: IRAK4 IC50
Please note: IC50 exactly at 5 nM is f. Only values below 5 nM get t.

INSERT INTO assay_data (recordsmiles, discretelabel) VALUES
  ('CC(C)(O)[C@H](F)CNC(=O)c1cnc(-n2ncc3cc(C#N)cnc32)cc1Nc1cnn(-c2ncc(F)cn2)c1', 't');

Query: Answer whether the molecule `CC(C)(O)[C@H](F)CNC(=O)c1cnc(-n2ncc3cc(C#N)cnc32)cc1NCC(C)(C)N1CCOCC1` has IC50 strictly less than 5 nM
Response: f

Query: Answer whether the molecule `CC(C)(O)C(F)(F)CNC(=O)c1cnc(-n2ncc3cc(C#N)cnc32)cc1Nc1cnn(CC(F)F)c1` has IC50 strictly less than 5 nM
Response: f

Query: Answer whether the molecule `CC(C)Nc1cc(-n2ccc3cc(CNC(=O)CC4CCCCC4)cnc32)ncc1C(=O)NC[C@@H](F)C(C)(C)O` has IC50 strictly less than 5 nM
Response: f

Query: Answer whether the molecule `Cn1cc(-c2ccc(Nc3cc(-n4ncc5cc(C#N)cnc54)ncc3C(=O)NC[C@@H](F)C(C)(C)O)cc2)cn1` has IC50 strictly less than 5 nM
Response: t

---

tgt: IRAK4 (Homo sapiens (Human), UniProt Q9NWZ3)
Sequence (Q9NWZ3 whole entry, species assumed): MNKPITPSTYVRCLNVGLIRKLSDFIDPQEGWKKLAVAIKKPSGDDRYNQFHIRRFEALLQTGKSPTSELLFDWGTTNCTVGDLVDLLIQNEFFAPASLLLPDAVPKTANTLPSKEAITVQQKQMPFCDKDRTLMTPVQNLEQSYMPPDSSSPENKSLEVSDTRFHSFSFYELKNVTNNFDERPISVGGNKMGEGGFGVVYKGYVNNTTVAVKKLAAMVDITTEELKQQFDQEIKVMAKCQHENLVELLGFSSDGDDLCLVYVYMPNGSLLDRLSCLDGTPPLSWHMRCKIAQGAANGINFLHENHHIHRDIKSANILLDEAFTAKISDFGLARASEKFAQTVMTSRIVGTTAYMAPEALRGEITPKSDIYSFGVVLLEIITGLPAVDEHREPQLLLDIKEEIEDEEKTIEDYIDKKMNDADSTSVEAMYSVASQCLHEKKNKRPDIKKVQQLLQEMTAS
experimentNotes: IRAK4 Inhibition Assay
Type: biochemical
testContext: ATP 500 μM; IRAK4 0.6 nM; read-out: IRAK4 IC50
Description: The assays were performed in U-bottom 384-well plates. […] The reaction was initiated by the combination of IRAK4 with substrates and test compounds. The reaction mixture was incubated at room temperature for 60 min. and terminated by adding 45 μL of 35 mM EDTA to each sample. The reaction mixture was analyzed on the Caliper LABCHIP® 3000 (Caliper, Hopkinton, Mass.) by electrophoretic separation of the fluorescent substrate and phosphorylated product.
Please note: IC50 exactly at 5 nM is rule not met. Only values below 5 nM get rule met.

Sample answers from the record:
INSERT INTO results (compound, discretelabel) VALUES
  ('CC(C)(O)[C@H](F)CNC(=O)c1cnc(-n2ncc3cc(C#N)cnc32)cc1NC12CC3CC(CC(O)(C3)C1)C2', 'rule met'),
  ('CC(C)(O)[C@H](F)CNC(=O)c1cnc(-n2ncc3cc(C#N)cnc32)cc1N[C@@H]1C[C@H]1CO (single isomer, unassigned) [Example 643]', 'rule not met');

With those in mind, consider the next compound.
Query: Answer whether the compound `CC(C)(O)c1cnc(Nc2cc(-n3ncc4cc(C#N)cnc43)ncc2C(=O)NC[C@@H](F)C(C)(C)O)s1` has IC50 strictly less than 5 nM
Response: rule met

---

# log10 IC50 listing for each entry below
Tested on: TLR2 induced IL-6 in peripheral blood mononuclear cells (PBMCs)
experimentNotes: PBMC TLR2 Induced IL-6 Assay
Type: cell-based, human
testContext: Homo sapiens, PBMC, PBMC TLR2 Induced IL-6 Assay; lipoteichoic acid stimulation, IL-6 by ELISA; read-out: Cell IC50
Each number you see is log10 of IC50, and the unit inside the log is nM.

INSERT INTO measurements (recordsmiles, measuredendpoint, measured) VALUES
  ('CC(C)(C)NC(=O)c1cnc(-n2ncc3cc(C#N)cnc32)cc1Nc1cnn(CC(F)F)c1', 'log10 IC50', 2.30);

Query: Provide value of log10 IC50 for this record tested with TLR2 induced IL-6 in peripheral blood mononuclear cells (PBMCs): `CC(C)Nc1cc(-n2ncc3cc(C#N)cnc32)ncc1C(=O)NCCC1(O)CCCC1`
Response: 2.29

Query: Provide value of log10 IC50 for this record tested with TLR2 induced IL-6 in peripheral blood mononuclear cells (PBMCs): `CC(C)Nc1cc(-n2ncc3cc(C#N)cnc32)ncc1C(=O)NC[C@H](F)C(C)(C)O`
Response: 2.52

Query: Provide value of log10 IC50 for this record tested with TLR2 induced IL-6 in peripheral blood mononuclear cells (PBMCs): `CC(C)Nc1cc(-n2ncc3cc(C#N)c(N)nc32)ncc1C(=O)NCCC(C)(C)F`
Response: 2.10

Query: Provide value of log10 IC50 for this record tested with TLR2 induced IL-6 in peripheral blood mononuclear cells (PBMCs): `CC(C)(C)Nc1cc(-n2ncc3cc(C#N)cnc32)ncc1C(=O)NC[C@@H](F)C(C)(C)O`
Response: 2.20

---

# log10 of IC50 listing for each entry below
tgt: IRAK4 (Homo sapiens (Human), UniProt Q9NWZ3)
experimentNotes: IRAK4 Inhibition Assay
Type: biochemical
testContext: ATP 500 μM; IRAK4 0.6 nM; read-out: IRAK4 IC50
Each number you see is log10 of IC50, and the unit inside the log is nM.

Query: Give the measured log10 of IC50 of CC(C)Nc1cc(-n2ccc3cc(C#N)cnc32)ncc1C(=O)NCCC1(O)CCCC1 [Example 487] .
Response: 0.30

---

# pIC50 listing for each entry below
tgt: IRAK4 (Homo sapiens (Human), UniProt Q9NWZ3)
experimentNotes: IRAK4 Inhibition Assay
Assay type: biochemical
testContext: IRAK4 Inhibition Assay; ATP 500 μM; read-out: IRAK4 IC50
Worth noting: pIC50 values are minus log10 of concentrations stated in mol/L.

Field: example entries. Status: answers known.
INSERT INTO measurements (compound, measured) VALUES
  ('CC(C)Nc1cc(-n2ncc3cc(C#N)cnc32)ncc1C(=O)Nc1cnc(N2CCOCC2)nc1 [Example 224]', 8.17),
  ('CC(C)n1cc(Nc2cc(-n3ncc4cc(Cl)cnc43)ncc2C(=O)NC[C@@H](F)C(C)(C)O)cn1 [Example 358]', 8.46),
  ('COC(=O)N[C@H]1CC[C@H](NC(=O)c2cnc(-n3ccc4cc(C#N)cnc43)cc2NC(C)C)CC1 [Example 97]', 8.31),
  ('CC(C)Nc1cc(-n2ncc3cc(C#N)cnc32)ncc1C(=O)Nc1ccc(N(C)C)nc1 [Example 228]', 8.16),
  ('CNC(=O)[C@H]1CC[C@H](NC(=O)c2cnc(-n3ncc4cc(C#N)cnc43)cc2NC(C)C)CC1 [Example 160]', 8.24),
  ('CCCCNC(=O)c1cnc(-n2ncc3cc(C#N)cnc32)cc1NC(C)C [Example 199]', 8.20);

Query: Give the measured pIC50 of CC(C)Nc1cc(-n2ncc3cc(C#N)cnc32)ncc1C(=O)N[C@H]1CC[C@H](C(C)(C)O)CC1 [Example 148] .
Response: 8.85

Query: Give the measured pIC50 of CC(C)(O)[C@H](F)CNC(=O)c1cnc(-n2ncc3cc(C#N)cnc32)cc1Nc1cnn(C2CCOCC2)c1 [Example 349] .
Response: 8.48

Query: Give the measured pIC50 of CCNc1cc(-n2ccc3cc(Cl)cnc32)ncc1C(=O)NC[C@@H](F)C(C)(C)O [Example 33] .
Response: 8.15

Query: Give the measured pIC50 of CC(C)Nc1cc(-n2ccc3cc(C#N)cnc32)ncc1C(=O)N[C@H]1CC[C@](C)(O)CC1 [Example 99] .
Response: 8.34

Query: Give the measured pIC50 of CC(C)Nc1cc(-n2ccc3cnc(N(C)C)nc32)ncc1C(=O)NC[C@@H](F)C(C)(C)O [Example 185] .
Response: 8.47

Query: Give the measured pIC50 of COc1ccc(CCNC(=O)c2cnc(-n3ncc4cc(C#N)cnc43)cc2NC(C)C)cc1 [Example 261] .
Response: 8.47

Query: Give the measured pIC50 of CC(C)Nc1cc(-n2ncc3cc(C#N)cnc32)ncc1C(=O)Nc1ccc(C(C)(C)O)cn1 [Example 236] .
Response: 7.94

Query: Give the measured pIC50 of CC(C)(O)[C@H](F)CNC(=O)c1cnc(-n2ncc3cc(F)cnc32)cc1Nc1cnn(CC(F)F)c1 [Example 384] .
Response: 8.64

Query: Give the measured pIC50 of CC(C)(O)[C@H](F)CNC(=O)c1cnc(-n2ccc3cc(C#N)cnc32)cc1NCC1(O)CCC1 [Example 28] .
Response: 8.55

Query: Give the measured pIC50 of CC(C)Nc1cc(-n2ccc3cc(C#N)cnc32)ncc1C(=O)N[C@H]1CC[C@](O)(c2ccccn2)CC1 [Example 178] .
Response: 8.43

Query: Give the measured pIC50 of CC(C)Nc1cc(-n2ccc3cc(C#N)cnc32)ncc1C(=O)NCCc1ccc(S(N)(=O)=O)cc1 [Example 58] .
Response: 8.57

Query: Give the measured pIC50 of CC[C@@H](C)Nc1cc(-n2ncc3cc(C#N)cnc32)ncc1C(=O)NC[C@@H](F)C(C)(C)O [Example 283] .
Response: 8.55

Query: Give the measured pIC50 of CCNC(=O)[C@H]1CC[C@H](NC(=O)c2cnc(-n3ccc4cc(C#N)cnc43)cc2NC(C)C)CC1 [Example 92] .
Response: 8.77

Query: Give the measured pIC50 of CC(C)Nc1cc(-n2ncc3cc(Cl)cnc32)ncc1C(=O)NCC(F)C1(O)COC1 (stereo not shown) [Example 258] .
Response: 8.20

Query: Give the measured pIC50 of CC(C)Nc1cc(-n2ncc3cc(C#N)cnc32)ncc1C(=O)NCCC1(O)CCC(F)(F)CC1 [Example 279] .
Response: 8.19

Query: Give the measured pIC50 of CC(C)Nc1cc(-n2ncc3cc(C#N)cnc32)ncc1C(=O)Nc1cnn(CC(F)F)c1 [Example 285] .
Response: 8.00

Query: Give the measured pIC50 of CC(C)Nc1cc(-n2ncc3cc(C#N)cnc32)ncc1C(=O)Nc1cc2cc[nH]c2cn1 [Example 223] .
Response: 8.40

Query: Give the measured pIC50 of CC(C)Nc1cc(-n2ccc3cc(Cl)ccc32)ncc1C(=O)NC[C@@H](F)C(C)(C)O [Example 37] .
Response: 7.93

Query: Give the measured pIC50 of CC(C)Nc1cc(-n2ncc3cc(C#N)cnc32)ncc1C(=O)NCCC1(O)CCN(C)CC1 [Example 250] .
Response: 8.08

The reported measurements were obtained from patent US9169252B2.
